Tested on: Fer kinase domain
Assay: pTyr-Var library bacterial peptide display kinase screen (enrichment scores);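 note: log2 fold change in enrichment of variant over reference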
Assay type: biochemical, mouse
Settings: sheet "Fer"; variant peptide relative to its reference peptide, pTyr-Var library screen enrichment
Quick rule for you: Screen at 0.4 or higher means t, lower means f.

Completed entries (count: 5):
FGSIMYEFVGK [SLC18A1_Y251_V249I]: f
HAVFIYDICHV [TWNK_Y508_V507I_YF]: f
DLHGIYQKLVI [TTN_Y21998_R21995H]: t
CEQELYSQLVF [WAS_Y102_W97C_YF]: f
PLDGEYFTLPI [TP53_Y327_Q331P]: t

Then there is this sequence:
Could you tell me if the measured Screen of KELALYDENWF [RPS19_Y48_P47L] reaches 0.4 or more?
t

Where do the numbers come from? From paper PMC10065799.
